Numbers sourced from paper PMC4222603.

- Measurement Target: IN strand transfer activity (full-length HIV-1 IN) (Human immunodeficiency virus type 1 group M subtype B)
Measure Name: IC50 (nM)
Give your result in nM as a bare value.

IC50 for C[C@@H]1CCO[C@H]2Cn3cc(C(=O)NCc4ccc(F)cc4F)c(=O)c(O)c3C(=O)N12 [DTG, Dolutegravir, reference compound] ? 2.7

* * *

We begin with a simple list: items and their reported pIC50.
- Measurement Target: IN-CCD/LEDGF-IBD interaction (Human immunodeficiency virus type 1 group M subtype B, UniProt P12497, F1332K)
- Construct: cloning the integrase region (residues 50 to 202, encoding the catalytic core domain)
- Assay Method Text: HTRF-based CCD-IBD interaction assay
- Condition Context: Table 1
Would you please state pIC50, meaning minus log10 of the concentration in mol/L, as a bare number?

Examples with answers:
Compound | pIC50
Cc1nc2c(c(-c3ccccc3)c1C(OC(C)(C)C)C(=O)O)CCCC2 (stereo not shown) | 4.85
CC(C)(C)OC(C(=O)O)c1c(-c2ccc3c(c2)CCCO3)ccc2ncccc12 (stereo not shown) | 5.77
CC(C)(C)OC(C(=O)O)C1=C(c2ccc3c(c2)CCCO3)c2ccccc2OC1 (stereo not shown) | 5.57

pIC50 for CC(C)(C)OC(C(=O)O)c1c(-c2ccc3c(c2)CCCO3)ccc2ccccc12 (stereo not shown) ? 5.42

pIC50 for Cc1nc2c(c(-c3ccc4c(c3)CCCO4)c1C(OC(C)(C)C)C(=O)O)CCCC2 (stereo not shown) ? 6.64

pIC50 for Cc1nc2ccccc2c(C2CCCCC2)c1C(OC(C)(C)C)C(=O)O (stereo not shown) ? 4.74

* * *

Listed here: molecules with reported pIC50 for IN strand transfer activity (Human immunodeficiency virus type 1 group M subtype B).
Would you please state pIC50, meaning minus log10 of the concentration in mol/L, as a bare number?

Examples with answers:
Molecule | pIC50
CC(C)(C)OC(C(=O)O)c1c(-c2ccc3c(c2)CCCO3)ccc2ccccc12 (centres unmarked) [Mut047] | 6.06
CC(C)(C)OC(C(=O)O)C1=C(c2ccc3c(c2)CCCO3)c2ccccc2OC1 (centres unmarked) [Mut062] | 6.27
Cc1nc2ccccc2c(C2CCCCC2)c1C(OC(C)(C)C)C(=O)O (centres unmarked) [Mut049] | 6.74

Please find the next molecule below.
Please tell me: pIC50 of Cc1nc2c(c(-c3ccc4c(c3)CCCO4)c1C(OC(C)(C)C)C(=O)O)CCCC2 (centres unmarked) [Mut101] , system IN strand transfer activity (Human immunodeficiency virus type 1 group M subtype B)? 6.77

* * *

- Measurement Target: IN-CCD wt (Human immunodeficiency virus type 1 group M subtype B, UniProt P12497, F1332K)
Measure Name: Kd (nM)
Give your result in nM as a bare value.

Kd for Cc1nc2c(c(-c3ccc4c(c3)CCCO4)c1C(OC(C)(C)C)C(=O)O)CCCC2 (stereo not shown) [Mut101] ? 120

* * *

- Tested on: HxB2 HIV-1
- Assay Method Text: Antiviral assay in MT4 cells infected with HxB2
- Format: cell-based
- Condition Context: Human immunodeficiency virus 1, HXB2, MT4; Table 1; read-out: HxB2 EC50 (MT4 assays)
We begin with a simple list: items and their reported EC50.
Give your result in µM as a bare value.

Molecule | EC50, µM
CC(C)(C)OC(C(=O)O)c1c(-c2ccc3c(c2)CCCO3)ccc2ncccc12 (stereo not drawn) [Mut029] | 3.8

EC50 for CC(C)(C)OC(C(=O)O)c1c(-c2ccc3c(c2)CCCO3)ccc2ccccc12 (stereo not drawn) [Mut047] ? 19

EC50 for Cc1nc2c(c(-c3ccc4c(c3)CCCO4)c1C(OC(C)(C)C)C(=O)O)CCCC2 (stereo not drawn) [Mut101] ? 0.092

EC50 for Cc1nc2c(c(-c3ccccc3)c1C(OC(C)(C)C)C(=O)O)CCCC2 (stereo not drawn) [Mut075] ? 1

EC50 for Cc1nc2ccccc2c(C2CCCCC2)c1C(OC(C)(C)C)C(=O)O (stereo not drawn) [Mut049] ? 0.75

EC50 for CC(C)(C)OC(C(=O)O)C1=C(c2ccc3c(c2)CCCO3)c2ccccc2OC1 (stereo not drawn) [Mut062] ? 1.3
